# system.name: Jak2 (UniProt O60674)
# Sequence (O60674 whole entry, looked up): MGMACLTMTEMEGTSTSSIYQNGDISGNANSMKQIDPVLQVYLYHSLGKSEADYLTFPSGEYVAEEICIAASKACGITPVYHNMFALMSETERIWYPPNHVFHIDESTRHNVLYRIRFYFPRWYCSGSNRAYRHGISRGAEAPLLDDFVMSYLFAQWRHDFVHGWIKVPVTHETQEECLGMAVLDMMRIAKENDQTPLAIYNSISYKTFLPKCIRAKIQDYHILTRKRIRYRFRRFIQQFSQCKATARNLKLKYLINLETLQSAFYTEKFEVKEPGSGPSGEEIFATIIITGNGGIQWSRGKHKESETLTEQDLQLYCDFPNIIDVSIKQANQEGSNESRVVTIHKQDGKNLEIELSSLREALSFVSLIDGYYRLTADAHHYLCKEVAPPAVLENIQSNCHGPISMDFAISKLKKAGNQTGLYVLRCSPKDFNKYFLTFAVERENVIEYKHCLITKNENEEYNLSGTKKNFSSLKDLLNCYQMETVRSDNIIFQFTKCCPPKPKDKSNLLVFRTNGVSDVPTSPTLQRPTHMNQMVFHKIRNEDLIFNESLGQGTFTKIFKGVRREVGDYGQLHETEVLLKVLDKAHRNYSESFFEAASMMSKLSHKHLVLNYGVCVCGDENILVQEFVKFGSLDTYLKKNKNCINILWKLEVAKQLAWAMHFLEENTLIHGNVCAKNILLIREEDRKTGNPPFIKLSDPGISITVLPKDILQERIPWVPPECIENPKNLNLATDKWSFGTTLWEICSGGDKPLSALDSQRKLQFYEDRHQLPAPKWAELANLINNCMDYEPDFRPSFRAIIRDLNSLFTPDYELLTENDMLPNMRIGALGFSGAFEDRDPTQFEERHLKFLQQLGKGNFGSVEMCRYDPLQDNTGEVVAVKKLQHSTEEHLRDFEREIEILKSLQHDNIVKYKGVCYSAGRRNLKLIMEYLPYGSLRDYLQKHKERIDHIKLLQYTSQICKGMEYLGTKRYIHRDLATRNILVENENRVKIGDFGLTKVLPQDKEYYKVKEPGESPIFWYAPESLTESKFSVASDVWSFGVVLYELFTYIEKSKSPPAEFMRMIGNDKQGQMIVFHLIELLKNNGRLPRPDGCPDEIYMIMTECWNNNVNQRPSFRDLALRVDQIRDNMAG
# assay.method.text: phosphorylation enrichment, bacterial display (enrichment ratio); higher = better substrate or ligand; peptides without Tyr show the background;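 further: 11-residue human phosphosite peptides and single-mutation variants displayed on the E. coli surface, counted by deep sequencing, each peptide's frequency after selection divided by its frequency in the unselected input library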;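 further: frequency after pTyr selection over input frequency; kinase dosed for 20-30% of maximal phosphorylation in three min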
Classify as follows. Reported phosphorylation enrichment greater than or equal to 0.9: Satisfied. Reported phosphorylation enrichment below: Not satisfied.

>>> df
                           seq_string       category
 0           EVRAQYEEIAQ [KRT76_Y361]      Satisfied
 1      DAHFTYSRYPW [LY75_Y888_D884A]      Satisfied
 2           QMQNPYSRHSS [MUC13_Y501]  Not satisfied
 3     SYCYRYCCAAR [SUMF1_Y344_R345C]  Not satisfied
 4      GKANRYFSPNF [PTEN_Y336_D331G]  Not satisfied
 5       VDASFYGGRGV [ANTXR2_Y381_YF]  Not satisfied
 6           NEKNIYRVPLM [BMPR2_Y247]  Not satisfied
 7            EFAAGYNVKFD [GPX4_Y123]  Not satisfied
 8  EKKKFYDAKIE [CASP5_Y104_T106A_YF]      Satisfied
 9         RLLVVYPSTQR [HBB_Y36_W38S]      Satisfied
10  FRKNTYNVKST [SYNE2_Y575_I574T_YF]  Not satisfied
11      LTTPTFGDLNH [TUBB_Y222_Y222F]  Not satisfied
12      WDLTDYLMKIL [ACTB_Y188_R183W]      Satisfied
13  MANFVYKAGPS [MAML2_Y515_M514V_YF]  Not satisfied
14     TPRNTYKMTSV [MKI67_Y849_L854V]  Not satisfied
15         RNLDTYQKRLR [PLA2G2D_Y126]  Not satisfied
